Assay: Equilibrium solubility of Plinabulin in propylene glycol-D5W diluents (HPLC)
Format: physicochemical
Details: propylene glycol-D5W diluent, 25 °C, saline or isotonic, thermodynamic from solid, Test Sample 1 (49.5 h), Diluent 1 (about 6 g propylene glycol + 200 ml D5W, 1:20), 100 rpm, read-out: Control Group - Diluent Test Concentration
MEASURED METRIC: solubility thermodynamic at 49.5 h
Report field: quantity (unit follows the number).

(Q) Please give the documented solubility thermodynamic at 49.5 h of CC(C)(C)c1[nH]cnc1/C=c1\[nH]c(=O)/c(=C/c2ccccc2)[nH]c1=O [Plinabulin]
(A) 0.155 µg/mL

====

Assay: Equilibrium solubility of Plinabulin in propylene glycol-D5W diluents (HPLC)
Type: physicochemical
Conditions: propylene glycol-D5W diluent, 25 °C, saline or isotonic, thermodynamic from solid, Test Sample 3 (1:50) dilution level, 96 h, read-out: Test Concentration (equilibrium solubility)
MEASURED METRIC: solubility thermodynamic at 96 h
Report field: quantity (unit follows the number).

(Q) Please give the documented solubility thermodynamic at 96 h of CC(C)(C)c1[nH]cnc1/C=c1\[nH]c(=O)/c(=C/c2ccccc2)[nH]c1=O
(A) 0.134 µg/mL

All values here come from patent US20260130851A1.
